System: Radical scavenging activity
assay_comment: Antioxidant activity assessed as inhibition of DPPH radical generation at 4000 ug/mL after 15 min by UV-Vis spectrophotometric analysis relative to control
Assay type: functional
condition_context: at 4000 µg/mL
Listed next: entries and their corresponding inhibition.
Output spec: scalar in %, unitless text.

Some solved entries appear below for comparison.
1. CSc1ccc(C2CC(c3ccc(Cl)cc3)=NN2c2nc(-c3ccc([N+](=O)[O-])cc3)cs2)cc1 (configuration not stated): 38
2. COc1ccc(C2=NN(c3nc(-c4ccc([N+](=O)[O-])cc4)cs3)C(c3ccc(-c4c(C)cccc4[N+](=O)[O-])o3)C2)cc1OC (configuration not stated): 66
3. COc1ccc(C2=NN(c3nc(-c4ccc([N+](=O)[O-])cc4)cs3)C(c3ccc(-c4ccc(Cl)cc4Cl)o3)C2)cc1OC (configuration not stated): 86
4. COc1ccc(C2=NN(c3nc(-c4ccc([N+](=O)[O-])cc4)cs3)C(c3ccc(-c4ccc(Cl)cc4[N+](=O)[O-])o3)C2)cc1OC (configuration not stated): 82
5. COc1ccc(-c2ccc(C3CC(c4ccc(OC)c(OC)c4)=NN3c3nc(-c4ccc([N+](=O)[O-])cc4)cs3)o2)c([N+](=O)[O-])c1 (configuration not stated): 86

Fill blank: measured inhibition of the compound COc1ccc(C2=NN(c3nc(-c4ccc([N+](=O)[O-])cc4)cs3)C(c3ccc(SC)cc3)C2)cc1OC (configuration not stated) is ____. 86

// same read-out, input: COc1ccc(C2=NN(c3nc(-c4ccc([N+](=O)[O-])cc4)cs3)C(c3ccc(-c4cc(Cl)c(Cl)cc4Cl)o3)C2)cc1OC (configuration not stated) 57

###

System: Radical scavenging activity
assay_comment: Antioxidant activity assessed as inhibition of DPPH radical generation at 4000 ug/mL after 15 min by UV-Vis spectrophotometric analysis relative to control
Type: functional
condition_context: at 4000 µg/mL
Recorded inhibition, one value per entry.
Write the number in % without appending the unit.

Answered examples (9):
1. CSc1ccc(C2CC(c3ccc([N+](=O)[O-])cc3)=NN2c2nc(-c3ccc([N+](=O)[O-])cc3)cs2)cc1 (stereo not given): 75
2. COc1ccc(C2=NN(c3nc(-c4ccc([N+](=O)[O-])cc4)cs3)C(c3ccc(-c4ccc(F)c(Cl)c4)o3)C2)cc1OC (stereo not given): 74
3. COc1ccc(C2=NN(c3nc(-c4ccc([N+](=O)[O-])cc4)cs3)C(c3ccc(SC)cc3)C2)cc1 (stereo not given): 79
4. O=C1O[C@H]([C@@H](O)CO)C(O)=C1O: 96
5. COc1ccc(C2=NN(c3nc(-c4ccc([N+](=O)[O-])cc4)cs3)C(c3ccc(-c4ccc([N+](=O)[O-])cc4)o3)C2)cc1OC (stereo not given): 62
6. COc1ccc(C2=NN(c3nc(-c4ccc([N+](=O)[O-])cc4)cs3)C(c3ccc(-c4ccc([N+](=O)[O-])cc4C)o3)C2)cc1OC (stereo not given): 14
7. CSc1ccc(C2CC(c3ccc(Cl)cc3Cl)=NN2c2nc(-c3ccc([N+](=O)[O-])cc3)cs2)cc1 (stereo not given): 88
8. COc1ccc(C2=NN(c3nc(-c4ccc([N+](=O)[O-])cc4)cs3)C(c3ccc(-c4ccc(Br)cc4)o3)C2)cc1OC (stereo not given): 69
9. O=[N+]([O-])c1ccc(-c2csc(N3N=C(c4ccccc4)CC3c3ccc(-c4ccc(Cl)cc4)o3)n2)cc1 (stereo not given): 45

Now turn to the next compound.
# query: inhibition of entry COc1ccc(C2=NN(c3nc(-c4ccc([N+](=O)[O-])cc4)cs3)C(c3ccc(-c4ccc(Cl)cc4)o3)C2)cc1OC (stereo not given) 35

###

Test system: Aspergillus fumigatus
assay_comment: Antifungal activity against Aspergillus fumigatus NCIM 902 assessed as growth inhibition by serial plate dilution method
Assay type: functional
endpoint: MIC (µg/mL)
Give the value in µg/mL but do not write µg/mL after it.

Recorded results for 2 compounds are shown here.
1. COc1ccc(C2=NN(c3nc(-c4ccc([N+](=O)[O-])cc4)cs3)C(c3ccc(-c4ccc([N+](=O)[O-])cc4C)o3)C2)cc1OC (configuration not stated): 6.25
2. COc1ccc(C2=NN(c3nc(-c4ccc([N+](=O)[O-])cc4)cs3)C(c3ccc(SC)cc3)C2)cc1 (configuration not stated): 25

// next item, MIC requested
Query MIC on Aspergillus fumigatus for COc1ccc(C2=NN(c3nc(-c4ccc([N+](=O)[O-])cc4)cs3)C(c3ccc(-c4ccc(Cl)cc4[N+](=O)[O-])o3)C2)cc1OC (configuration not stated) 12.5

###

System: Pseudomonas aeruginosa
assay_comment: Antibacterial activity against Pseudomonas aeruginosa ATCC 27853 assessed as growth inhibition at 1.56 to 25 ug/mL
Assay type: functional
Measured diameter of the inhibition zone (DIZ), listed per entry.
Please reply with the bare figure in mm and do not write the unit itself.

Study these solved cases before continuing.
1. CSc1ccc(C2CC(c3ccc(Cl)cc3Cl)=NN2c2nc(-c3ccc([N+](=O)[O-])cc3)cs2)cc1 (configuration not stated): 16
2. COc1ccc(C2=NN(c3nc(-c4ccc([N+](=O)[O-])cc4)cs3)C(c3ccc(-c4ccc(F)c(Cl)c4)o3)C2)cc1OC (configuration not stated): 16
3. COc1ccc(C2=NN(c3nc(-c4ccc([N+](=O)[O-])cc4)cs3)C(c3ccc(-c4c(C)cccc4[N+](=O)[O-])o3)C2)cc1OC (configuration not stated): 11
4. CC1(C)S[C@@H]2[C@H](NC(=O)[C@H](N)c3ccccc3)C(=O)N2[C@H]1C(=O)O: 25

// diameter of the inhibition zone (DIZ) lookup, key: COc1ccc(C2=NN(c3nc(-c4ccc([N+](=O)[O-])cc4)cs3)C(c3ccc(-c4ccc(Cl)cc4)o3)C2)cc1OC (configuration not stated) 16

###

System: Staphylococcus aureus
assay_comment: Antibacterial activity against Staphylococcus aureus ATCC 25923 assessed as growth inhibition by serial plate dilution method
Format: functional
endpoint: MIC (µg/mL)
Numbers only here, please. The scale is µg/mL.

What MIC appears in the records for this molecule with Staphylococcus aureus? CSc1ccc(C2CC(c3ccc([N+](=O)[O-])cc3)=NN2c2nc(-c3ccc([N+](=O)[O-])cc3)cs2)cc1 (stereo not drawn) 25

Entry to check: CSc1ccc(C2CC(c3ccc(Cl)cc3)=NN2c2nc(-c3ccc([N+](=O)[O-])cc3)cs2)cc1 (stereo not drawn) 6.25

How about COc1ccc(C2=NN(c3nc(-c4ccc([N+](=O)[O-])cc4)cs3)C(c3ccc(-c4ccc([N+](=O)[O-])cc4)o3)C2)cc1OC (stereo not drawn) ? 6.25

###

MIC by entry:
Tested on: Staphylococcus aureus
assay_comment: Antibacterial activity against Staphylococcus aureus ATCC 25923 assessed as growth inhibition by serial plate dilution method
Type: functional
Give the quantity in µg/mL, number only.

Check out these entries, answers already filled in.
1) COc1ccc(C2=NN(c3nc(-c4ccc([N+](=O)[O-])cc4)cs3)C(c3ccc(-c4cc(Cl)c(Cl)cc4Cl)o3)C2)cc1OC (configuration not stated): 6.25
2) COc1ccc(C2=NN(c3nc(-c4ccc([N+](=O)[O-])cc4)cs3)C(c3ccc(-c4c(C)cccc4[N+](=O)[O-])o3)C2)cc1OC (configuration not stated): 12.5
3) CC1(C)S[C@@H]2[C@H](NC(=O)[C@H](N)c3ccccc3)C(=O)N2[C@H]1C(=O)O: 1.56
4) COc1ccc(C2=NN(c3nc(-c4ccc([N+](=O)[O-])cc4)cs3)C(c3ccc(-c4ccc(Br)cc4)o3)C2)cc1OC (configuration not stated): 12.5
5) COc1ccc(C2=NN(c3nc(-c4ccc([N+](=O)[O-])cc4)cs3)C(c3ccc(SC)cc3)C2)cc1OC (configuration not stated): 25
6) COc1ccc(C2=NN(c3nc(-c4ccc([N+](=O)[O-])cc4)cs3)C(c3ccc(-c4ccc(F)c(Cl)c4)o3)C2)cc1OC (configuration not stated): 6.25

Kindly review the next compound as well.
Bench note: what MIC did COc1ccc(C2=NN(c3nc(-c4ccc([N+](=O)[O-])cc4)cs3)C(c3ccc(-c4ccc(Cl)cc4[N+](=O)[O-])o3)C2)cc1OC (configuration not stated) show? 12.5

###

Test system: Pseudomonas aeruginosa
assay_comment: Antibacterial activity against Pseudomonas aeruginosa ATCC 27853 assessed as growth inhibition at 1.56 to 25 ug/mL
Assay type: functional
endpoint: diameter of the inhibition zone (DIZ) (mm)
API: value field is a number in mm; no unit string.

1. CSc1ccc(C2CC(c3ccc(Cl)cc3)=NN2c2nc(-c3ccc([N+](=O)[O-])cc3)cs2)cc1 (centres undefined): 16
2. COc1ccc(C2=NN(c3nc(-c4ccc([N+](=O)[O-])cc4)cs3)C(c3ccc(-c4ccc([N+](=O)[O-])cc4)o3)C2)cc1OC (centres undefined): 16

Could you now look at the following compound, please?
Item COc1ccc(C2=NN(c3nc(-c4ccc([N+](=O)[O-])cc4)cs3)C(c3ccc(-c4ccc([N+](=O)[O-])cc4C)o3)C2)cc1OC (centres undefined) has what recorded diameter of the inhibition zone (DIZ)? 16
